- TARGET_ENTITY: CutC (choline TMA lyase) (Proteus mirabilis)
- PROCEDURE_TEXT: d9-TMA production from d9-choline in cutC/D-transformed E. coli lysate, LC/MS/MS
- Format: biochemical
pIC50: −log10 of the molar value.
OBSERVED_PROPERTY: pIC50

- C[Si](C)(C)CCO: ~5.00

###

- TARGET_ENTITY: CutC (choline TMA lyase) (Proteus mirabilis, UniProt B4EYG1)
- Sequence (B4EYG1 1-1142): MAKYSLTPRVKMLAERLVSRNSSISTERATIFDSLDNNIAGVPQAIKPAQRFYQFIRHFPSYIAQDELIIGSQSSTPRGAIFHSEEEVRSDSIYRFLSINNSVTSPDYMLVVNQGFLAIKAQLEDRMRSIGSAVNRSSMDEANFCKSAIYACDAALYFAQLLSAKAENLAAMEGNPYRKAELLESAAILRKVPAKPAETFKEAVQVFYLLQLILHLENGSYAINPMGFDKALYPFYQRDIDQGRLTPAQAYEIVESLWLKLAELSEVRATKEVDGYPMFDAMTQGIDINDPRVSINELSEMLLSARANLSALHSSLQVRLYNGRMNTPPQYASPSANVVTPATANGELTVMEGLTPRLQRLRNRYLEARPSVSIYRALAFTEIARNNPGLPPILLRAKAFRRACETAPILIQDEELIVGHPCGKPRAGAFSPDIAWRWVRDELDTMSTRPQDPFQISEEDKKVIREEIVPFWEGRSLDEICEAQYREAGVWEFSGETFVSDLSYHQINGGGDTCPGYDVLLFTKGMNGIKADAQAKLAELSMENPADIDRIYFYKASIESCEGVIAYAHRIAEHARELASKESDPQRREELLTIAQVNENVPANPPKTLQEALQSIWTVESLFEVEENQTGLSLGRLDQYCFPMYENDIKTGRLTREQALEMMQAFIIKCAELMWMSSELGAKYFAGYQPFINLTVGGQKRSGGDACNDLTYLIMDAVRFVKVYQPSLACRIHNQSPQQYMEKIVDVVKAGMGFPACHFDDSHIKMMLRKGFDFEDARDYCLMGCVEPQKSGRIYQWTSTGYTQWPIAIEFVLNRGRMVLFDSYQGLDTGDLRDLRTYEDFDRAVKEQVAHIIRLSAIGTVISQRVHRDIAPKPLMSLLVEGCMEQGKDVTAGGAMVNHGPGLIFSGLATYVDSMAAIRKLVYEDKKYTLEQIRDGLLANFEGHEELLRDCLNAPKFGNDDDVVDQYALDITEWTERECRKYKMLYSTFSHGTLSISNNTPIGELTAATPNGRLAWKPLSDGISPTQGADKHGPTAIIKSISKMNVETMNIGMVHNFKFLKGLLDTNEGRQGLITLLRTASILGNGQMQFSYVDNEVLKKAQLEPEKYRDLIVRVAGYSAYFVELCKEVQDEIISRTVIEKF
- Sequence (B4EYG0 1-316 partner): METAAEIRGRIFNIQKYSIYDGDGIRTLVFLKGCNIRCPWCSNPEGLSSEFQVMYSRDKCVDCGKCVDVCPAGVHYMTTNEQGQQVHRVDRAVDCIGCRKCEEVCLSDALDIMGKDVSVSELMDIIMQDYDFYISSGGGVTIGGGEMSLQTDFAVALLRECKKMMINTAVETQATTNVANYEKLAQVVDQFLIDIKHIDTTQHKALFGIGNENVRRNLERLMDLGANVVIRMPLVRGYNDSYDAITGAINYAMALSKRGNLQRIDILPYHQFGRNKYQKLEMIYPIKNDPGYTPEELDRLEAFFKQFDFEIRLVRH
- PROCEDURE_TEXT: anaerobic d9-TMA production with purified CutC and CutD, LC/MS/MS
- Format: biochemical
pIC50: −log10 of the molar value.
OBSERVED_PROPERTY: pIC50

* CC(C)(C)CCO [DMB, 3,3-dimethyl-1-butanol] | ~5.00
